IC50 by entry:
Target: Acetylcholinesterase (Homo sapiens)
Write the quantity with the unit trailing the number.

>  <compound>
CC[N+](C)(CCCCCC(=O)N(C)CCCCCCCCN(C)C(=O)CCCCC[N+](C)(CC)Cc1ccccc1[N+](=O)[O-])Cc1ccccc1[N+](=O)[O-] (centres undefined)

>  <assay.target>
Acetylcholinesterase (Homo sapiens)

>  <IC50>
0.0123 µM

$$$$
>  <compound>
CCN(CCCCCC(=O)N(C)CCCCCCCCN(C)C(=O)CCCCCN(CC)Cc1ccccc1OC)Cc1ccccc1OC

>  <assay.target>
Acetylcholinesterase (Homo sapiens)

>  <IC50>
0.0186 µM

$$$$
>  <compound>
CCN(CCCCCC(=O)N(C)CCCCCCCCN(C)C(=O)CCCCCN(CC)Cc1ccccc1[N+](=O)[O-])Cc1ccccc1[N+](=O)[O-]

>  <assay.target>
Acetylcholinesterase (Homo sapiens)

>  <IC50>
0.794 µM

$$$$

// moving on: another record for IC50
Param readout= IC50; system= Acetylcholinesterase (Homo sapiens); entry= CC[N+](C)(CCCCCC(=O)N(C)CCCCCCCCN(C)C(=O)CCCCC[N+](C)(CC)Cc1ccccc1OC)Cc1ccccc1OC (centres undefined) ; returns value. 0.012 µM

---

Quick note: these are Ki numbers for system: Acetylcholinesterase (Homo sapiens, UniProt P22303)
Sequence (P22303 whole entry): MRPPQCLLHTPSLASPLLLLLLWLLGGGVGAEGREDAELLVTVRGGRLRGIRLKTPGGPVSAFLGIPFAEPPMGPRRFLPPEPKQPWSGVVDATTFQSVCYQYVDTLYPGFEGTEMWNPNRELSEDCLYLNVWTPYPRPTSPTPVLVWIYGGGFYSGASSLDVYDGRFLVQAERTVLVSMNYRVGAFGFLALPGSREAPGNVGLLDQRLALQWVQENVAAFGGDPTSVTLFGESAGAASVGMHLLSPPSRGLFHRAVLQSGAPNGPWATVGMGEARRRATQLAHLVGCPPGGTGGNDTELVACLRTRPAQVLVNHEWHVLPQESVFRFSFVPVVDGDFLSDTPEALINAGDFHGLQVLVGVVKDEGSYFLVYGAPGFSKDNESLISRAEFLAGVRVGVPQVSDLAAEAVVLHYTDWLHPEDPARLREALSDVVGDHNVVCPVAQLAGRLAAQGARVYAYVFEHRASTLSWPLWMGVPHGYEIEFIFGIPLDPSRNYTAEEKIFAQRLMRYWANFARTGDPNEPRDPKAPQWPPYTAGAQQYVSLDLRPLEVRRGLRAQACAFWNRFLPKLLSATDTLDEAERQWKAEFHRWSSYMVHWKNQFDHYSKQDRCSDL
Write it as a number; the unit nM goes unstated.

>  <mol.smiles>
CCN(CCCCCC(=O)N(C)CCCCCCCCN(C)C(=O)CCCCCN(CC)Cc1ccccc1OC)Cc1ccccc1OC

>  <meas.value>
12.2

$$$$

// moving on: another record for Ki
Param readout= Ki; system= Acetylcholinesterase (Homo sapiens, UniProt P22303); entry= COc1ccccc1CN(C)CCCCCC(=O)N(C)CCCCCCCCN(C)C(=O)CCCCCN(C)Cc1ccccc1OC ; returns value. 104

---

Experiment: Apparent dissociation constant of compound was evaluated
Format: ADME
measurement.label: pKa
Answer field: number only, no words.

Would you kindly share the measured pKa for CCCOc1ccccc1CN(CC)CCCCCC(=O)N(C)CCCCCCCCN(C)C(=O)CCCCCN(CC)Cc1ccccc1OCCC ? 7.75

Would you kindly share the measured pKa for CCN(CCCCCC(=O)N(C)CCCCCCCCN(C)C(=O)CCCCCN(CC)Cc1ccccc1C(F)(F)F)Cc1ccccc1C(F)(F)F ? 6.15

Would you kindly share the measured pKa for CCN(CCCCCC(=O)N(C)CCCCCCCCN(C)C(=O)CCCCCN(CC)Cc1ccccc1C)Cc1ccccc1C ? 7.46

Would you kindly share the measured pKa for CCN(CCCCCC(=O)N(C)CCCCCCCCN(C)C(=O)CCCCCN(CC)Cc1ccccc1OC)Cc1ccccc1OC ? 7.8

Would you kindly share the measured pKa for CCN(CCCCCC(=O)N(C)CCCCCCCCN(C)C(=O)CCCCCN(CC)Cc1ccccc1Cl)Cc1ccccc1Cl ? 6.92

Would you kindly share the measured pKa for CCN(CCCCCC(=O)N(C)CCCCCCCCN(C)C(=O)CCCCCN(CC)Cc1ccccc1[N+](=O)[O-])Cc1ccccc1[N+](=O)[O-] ? 6.26

Would you kindly share the measured pKa for CCN(CCCCCC(=O)N(C)CCCCCCCCN(C)C(=O)CCCCCN(CC)Cc1ccccc1)Cc1ccccc1 ? 7.42

---

Molecular target: UniProt:P22303
pIC50: −log10 of the molar value.
Threshold check on pIC50: at or above 7 gives MET, strictly below gives NOT MET.

Is pIC50 at least 7? Consider CCN(CCCCCCOCCCCCCCCOCCCCCCN(CC)Cc1ccccc1OC)Cc1ccccc1OC NOT MET

These data points were gathered from ChEMBL document CHEMBL1136713.
